# experiment-notes: protease stability score; higher = more stable; yeast display proteolysis, trypsin and chymotrypsin;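 further: relative to predicted unfolded state with 0 unfolded-like and 1 meaning tenfold more protease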
Entries and their protease stability score

{"columns": ["input-sequence", "protease stability score"],
 "data": [
  ["DEDEELSERVTREWLHAILTGDEDWLRRYVDPHVRVHINVDGKDRTVHGMDFLIEHLRRVPNVRFIIKHMEVETQGEKVIIRVNVRIRVGDKEHETEIILIVLKVDGRWIATSIFIHIR", 0.231],
  ["SEEEEEMKRFIEDELRAWRTGDEDLIHEQFDPHVRVIIGEFEYHGRELLHEMFNRIDHIEHIELRIHHVHLQGDKAHLEVEEREHGVFDGKRINVSREINIIIHKIDGRWVHTIIIIE", 0.606]
]}

Note: attention shifts to another entry.
# query: protease stability score of entry `HELEEEAKRAADIWFENLLTGDFDSLRKLVDPHVRMNYNGQEYHGWEEVIRFWKEYLDKVKNLQFHRHHVDVQGEKTTIDTRHIINGRSSEVEIRLLVINGRIQSNEVHEN`
1.14

* * *

# experiment-notes: protease stability score; higher = more stable; yeast display proteolysis, trypsin and chymotrypsin;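 further: relative to predicted unfolded state with 0 unfolded-like and 1 meaning tenfold more protease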
Output Y for protease stability score not less than 1; output N otherwise.

{"columns": ["input-sequence", "category-label"],
 "data": [
  ["DEEEEKLRFAVELFEETFRTGDEKLKEHLADPDVRVHYGDFEYHGRETLERWTRFVKGVKVELKSIDIINGVLDLDGTLHFNGRTFDTRYLALKINGRWILKRVIIH", "Y"],
  ["DEHEEISRRLAEFENEWINTGDEESFARNADPDVRIHVGEFHSHGREEMIRILKEFFRWLGVKHFRPTHIEIQGEKVIIYLEWHFDGRTHRIQIISVVVDGRRKSFQVHKL", "N"],
  ["SEDEEEAKRSIELEMRSWRTGDEDAWLRLADPDVKFVIDGREFHGREALEFLQNRFDHIEMREHEVRHVDLQGDKIHMDTRLRMILIYNGVEIEKETRTEIVVKKIDGRWILHQVEYR", "N"],
  ["SEEHRESEEASHEFRRLWETGDEKDFLKLADPHTRLEVNGKDIHGMREVTEFMKRRLHHLGFKHSDVKHEHVEVFDGKVRIEMIIEIHVNGVPLHTEVLVILTKINGKWRIHSITEEIK", "N"],
  ["DELQRDSKQAVKLWSESVLTGDERVLKEMADPDPRVEVGEYSSHGMHEVKRLLREMRIEVEDFKDENVRVYGEKLVVDGILHIRIHINGRDEHIDRRAILIMVKVDGRWYFKSMVYR", "N"]
]}

# bool: protease stability score of `DQDDHMAKEFHKLFFDAIRTGDEDLLSMLLDPHVLMNIGNFHRHGRELVVDMQRHLYEKHGFRIHNAHVERWHIFENRLIYHLKVDGKVDGKRHVMEFDLTILKVDGVWIITSITIK` >= 1
Y

Try this sequence next: `DEEERYIIEMLRILAEAILTGDEDETHNQLDPDVRIEWNGVELHGRDELLRFMHHLRIDIKRVEFRSITKVDGRVHTDGLLDVTYFIDGRVFRRRTHTELIILKVDGRWTFHSIKID`
Y

Try this sequence next: `SESKEFIKRFTEEILKNTLTGNEDRYEELLDPNVRVEVGDKEHHGREEALEFLHRIWRELRTKHIVLRDMRIIGDKAEVEYEVRVEVNGVELHMTRRMEIVVIDGRLKAVKLEHT`
Y

Try this sequence next: `DEMHEYTERLLHLLTFAQITGDERIHERLADPNVKIHINGREFHGREEVWHSLEEIRVRHTELRESDIQGDKINVNGDVDLHFNGVDIVTKVRIVVDKVNGRWRISFLRID`
N

Try this sequence next: `DDIEKLMLWALHLFSHALSTGNEELVIRLADPHYRLHIGDWESHGRENFRQFIHEIRMHMKRVDDRDIRVQGEFVRIEGELDGVIFIDGRTFRTRLDTRIILNKVDGRWFIHSNHVH`
Y
